Documented Dmax across a set of molecules
test_target: IKZF1 (Homo sapiens, UniProt Q13422+Q96SW2)
Construct: expressed in transfected cells
Sequence (Q13422 whole entry): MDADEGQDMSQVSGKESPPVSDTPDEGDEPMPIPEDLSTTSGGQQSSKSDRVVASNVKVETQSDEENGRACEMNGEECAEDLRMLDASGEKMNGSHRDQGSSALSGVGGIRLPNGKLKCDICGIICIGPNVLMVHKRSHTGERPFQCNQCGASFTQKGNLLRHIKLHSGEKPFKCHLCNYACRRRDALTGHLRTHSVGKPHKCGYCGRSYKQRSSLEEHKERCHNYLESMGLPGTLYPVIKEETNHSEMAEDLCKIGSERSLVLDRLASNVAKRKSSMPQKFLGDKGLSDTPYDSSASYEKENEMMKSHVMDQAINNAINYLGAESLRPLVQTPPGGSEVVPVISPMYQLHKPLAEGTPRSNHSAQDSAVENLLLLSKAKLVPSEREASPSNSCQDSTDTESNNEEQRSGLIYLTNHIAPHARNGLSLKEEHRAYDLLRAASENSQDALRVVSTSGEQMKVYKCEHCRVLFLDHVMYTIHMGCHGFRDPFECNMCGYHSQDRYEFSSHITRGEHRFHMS
Sequence (Q96SW2 whole entry): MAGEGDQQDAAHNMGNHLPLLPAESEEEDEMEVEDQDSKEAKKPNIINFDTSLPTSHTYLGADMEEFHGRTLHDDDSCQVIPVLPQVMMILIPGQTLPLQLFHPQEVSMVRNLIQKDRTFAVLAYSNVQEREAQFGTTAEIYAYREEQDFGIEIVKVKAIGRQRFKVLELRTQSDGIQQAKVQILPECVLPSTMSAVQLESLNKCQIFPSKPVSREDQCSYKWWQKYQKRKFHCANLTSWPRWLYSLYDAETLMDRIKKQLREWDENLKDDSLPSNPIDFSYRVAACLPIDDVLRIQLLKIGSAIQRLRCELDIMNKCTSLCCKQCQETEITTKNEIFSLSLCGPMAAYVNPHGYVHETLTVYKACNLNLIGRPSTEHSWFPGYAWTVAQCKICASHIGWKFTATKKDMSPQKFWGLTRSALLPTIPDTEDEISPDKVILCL
Sequence (Q16531 whole entry partner): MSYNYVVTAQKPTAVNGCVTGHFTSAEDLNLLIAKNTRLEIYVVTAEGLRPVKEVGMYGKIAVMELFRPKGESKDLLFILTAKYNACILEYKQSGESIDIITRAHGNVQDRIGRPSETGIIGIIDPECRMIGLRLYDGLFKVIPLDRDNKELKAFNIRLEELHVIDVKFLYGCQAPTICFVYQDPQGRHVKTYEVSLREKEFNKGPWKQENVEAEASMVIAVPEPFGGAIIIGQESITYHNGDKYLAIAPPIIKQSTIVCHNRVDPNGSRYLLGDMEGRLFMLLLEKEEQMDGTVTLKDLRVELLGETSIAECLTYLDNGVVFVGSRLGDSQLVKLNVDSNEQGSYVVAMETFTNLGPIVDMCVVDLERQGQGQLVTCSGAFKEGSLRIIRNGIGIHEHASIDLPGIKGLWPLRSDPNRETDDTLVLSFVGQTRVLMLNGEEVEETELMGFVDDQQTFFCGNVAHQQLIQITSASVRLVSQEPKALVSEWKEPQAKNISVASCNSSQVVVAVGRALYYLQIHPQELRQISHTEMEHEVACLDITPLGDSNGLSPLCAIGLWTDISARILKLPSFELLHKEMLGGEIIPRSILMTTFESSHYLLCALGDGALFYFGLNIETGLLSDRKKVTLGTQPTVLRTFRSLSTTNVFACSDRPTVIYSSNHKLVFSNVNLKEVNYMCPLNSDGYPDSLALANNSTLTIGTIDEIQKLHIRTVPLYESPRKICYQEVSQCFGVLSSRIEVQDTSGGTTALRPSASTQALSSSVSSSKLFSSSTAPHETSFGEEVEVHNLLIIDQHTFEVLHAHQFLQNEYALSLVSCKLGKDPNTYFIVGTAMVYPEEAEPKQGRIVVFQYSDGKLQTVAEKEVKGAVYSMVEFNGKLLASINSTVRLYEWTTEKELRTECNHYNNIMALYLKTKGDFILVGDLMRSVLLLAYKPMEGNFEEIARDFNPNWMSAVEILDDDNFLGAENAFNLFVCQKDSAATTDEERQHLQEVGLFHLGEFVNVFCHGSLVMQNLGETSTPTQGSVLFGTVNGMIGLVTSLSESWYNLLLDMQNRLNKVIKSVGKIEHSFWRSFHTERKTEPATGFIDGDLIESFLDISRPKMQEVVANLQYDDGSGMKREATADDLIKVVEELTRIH
protocol_text: HiBiT protein tagging assay, in vitro IKZF1 degradation (HEK293)
Type: cell-based
condition_description: HEK293, 18-24 hr incubation, normalized to DMSO control, read-out: IKZF1 Dmax (maximum degradation at the highest concentration tested)
Experimental: In vitro degradation of IKZF1 and IKZF2 was measured using HiBiT protein tagging and detection technology (Promega). HiBiT technology (Promega) was used to develop the quantitative assays to measure the cellular IKZFs level by tagging an 11 amino acid HiBit peptides VSGWRLFKKIS (SEQ ID NO:1) to the protein of interest. Reporter plasmids were generated by fusing a linker sequence (GSSGGSSG; SEQ ID NO:2) followed by the HiBiT tag at the C terminus of IKZF1 and IKZF2. […]

Some molecules with known Dmax results, for comparison:
| molecule | Dmax |
| --- | --- |
| O=C1CCC(N2Cc3cc(CNC45CCC(CC4)C5)ccc3C2=O)C(=O)N1 (centres unmarked) | 32% |
| C[C@H]1CCCC[C@@H]1NCc1ccc2c(c1)CN(C1CCC(=O)NC1=O)C2=O (some centres unmarked) | 23% |
| O=C1CCC(N2Cc3cc(CNC4CCC5(CC4)COC5)ccc3C2=O)C(=O)N1 (centres unmarked) | 55% |
| O=C1CCC(N2Cc3cc(CNC4CCCC(C(F)(F)F)C4)ccc3C2=O)C(=O)N1 (centres unmarked) | 42% |
| O=C1CCC(N2Cc3cc(CN[C@@H]4CCC[C@H](Oc5ccccc5)C4)ccc3C2=O)C(=O)N1 (some centres unmarked) | 61% |
| O=C1CCC(N2Cc3cc(CNC4CCN(C(=O)c5ccccc5)CC4)ccc3C2=O)C(=O)N1 (centres unmarked) | 77% |

-- ask Report measured Dmax; entry is CO[C@H]1CCCC[C@H]1NCc1ccc2c(c1)CN(C1CCC(=O)NC1=O)C2=O (some centres unmarked)
-- reply 38%

-- ask Report measured Dmax; entry is O=C1CCC(N2Cc3cc(CN[C@H](CO)Cc4ccccc4)ccc3C2=O)C(=O)N1 (some centres unmarked)
-- reply 23%
